Target system: recombinant human NF-kappaB-inducing kinase (NIK/MAP3K14) (Homo sapiens)
Sequence (Q99558 whole entry): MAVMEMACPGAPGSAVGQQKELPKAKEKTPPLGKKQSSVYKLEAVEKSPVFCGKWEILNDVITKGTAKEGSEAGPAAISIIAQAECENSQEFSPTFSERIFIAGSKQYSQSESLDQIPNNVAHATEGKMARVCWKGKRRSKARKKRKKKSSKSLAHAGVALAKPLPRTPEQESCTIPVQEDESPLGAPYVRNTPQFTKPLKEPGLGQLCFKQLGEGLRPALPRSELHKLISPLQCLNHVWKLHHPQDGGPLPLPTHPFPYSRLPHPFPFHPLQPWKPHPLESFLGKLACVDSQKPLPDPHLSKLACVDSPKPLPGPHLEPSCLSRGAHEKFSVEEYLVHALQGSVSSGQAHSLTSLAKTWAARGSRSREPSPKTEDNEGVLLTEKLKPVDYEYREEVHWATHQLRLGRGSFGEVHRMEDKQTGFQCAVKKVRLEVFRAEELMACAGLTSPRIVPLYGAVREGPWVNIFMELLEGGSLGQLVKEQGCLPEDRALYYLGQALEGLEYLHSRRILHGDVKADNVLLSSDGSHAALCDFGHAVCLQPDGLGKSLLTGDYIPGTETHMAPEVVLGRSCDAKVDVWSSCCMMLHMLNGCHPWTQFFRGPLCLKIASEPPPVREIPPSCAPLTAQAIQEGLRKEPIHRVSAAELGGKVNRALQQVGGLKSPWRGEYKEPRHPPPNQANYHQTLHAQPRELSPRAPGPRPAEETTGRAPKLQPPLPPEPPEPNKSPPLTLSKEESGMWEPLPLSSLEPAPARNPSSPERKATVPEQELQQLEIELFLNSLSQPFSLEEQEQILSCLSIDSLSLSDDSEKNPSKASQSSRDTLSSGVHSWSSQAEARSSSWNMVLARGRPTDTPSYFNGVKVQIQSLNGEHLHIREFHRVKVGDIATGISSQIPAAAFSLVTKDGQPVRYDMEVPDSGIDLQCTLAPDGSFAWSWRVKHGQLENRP
Assay procedure: Biological Assay B: inhibition of auto-phosphorylation of recombinant human NIK/MAP3K14 (AlphaScreen), performed at 2 locations
Type: biochemical
Assay context: location 1; AlphaScreen auto-phosphorylation; averaged values; read-out: Assay B location 1 IC50
pIC50: −log10 of the molar value.
Measurement label: pIC50

                                   compound  obs_value
0  [2H]C([2H])([2H])c1ccccc1Nc1nccc(-c2cnc3c(c2)C(C)(CO)CN3)n1 (centres unmarked) [Compound 234]       7.21

(a) CC1(CO)CNc2ncc(-c3ccnc(Nc4cc(F)c(N5CCOCC5)cc4Cl)n3)cc21 (single isomer, unassigned) [Compound 261]
(b) COc1cc(C(=O)N2CCN(C)CC2)ccc1Nc1nccc(-c2cnc3c(c2)C(C)(CO)CN3)n1 (centres unmarked) [Compound 143]
Which entry has a larger number for pIC50, a or b ? Answer format: the label of the selected item.
a
(a: 8.08, b: 7.77)
